Target of assay: T1, human amylin-3 (a) receptor (human, UniProt P30988 25-474; O60896 24-148)
T1 sequence (looked up) 1: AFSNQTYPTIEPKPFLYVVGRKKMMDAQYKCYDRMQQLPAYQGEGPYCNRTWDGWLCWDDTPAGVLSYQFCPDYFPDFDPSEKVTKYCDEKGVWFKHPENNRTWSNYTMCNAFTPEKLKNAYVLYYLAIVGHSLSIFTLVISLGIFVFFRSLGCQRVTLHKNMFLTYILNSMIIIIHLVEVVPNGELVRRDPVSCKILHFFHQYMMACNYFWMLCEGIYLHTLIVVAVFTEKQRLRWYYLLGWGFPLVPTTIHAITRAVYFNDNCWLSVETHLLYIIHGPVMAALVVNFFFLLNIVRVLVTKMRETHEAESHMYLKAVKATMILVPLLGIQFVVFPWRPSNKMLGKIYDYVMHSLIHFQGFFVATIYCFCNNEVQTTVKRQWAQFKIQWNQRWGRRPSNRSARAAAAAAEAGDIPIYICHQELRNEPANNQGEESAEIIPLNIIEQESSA
T1 sequence (looked up) 2: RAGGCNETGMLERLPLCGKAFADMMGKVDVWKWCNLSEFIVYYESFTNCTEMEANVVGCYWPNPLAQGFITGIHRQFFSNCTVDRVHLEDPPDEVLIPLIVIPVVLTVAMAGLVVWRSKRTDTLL
Assay summary: cell-based or functional assay
Starred links: 1 amine or outer side, 2 acyl side, 3 side chain; linkers in the order of their positions; H or OH if unused. Non-standard residues stand in square brackets, D forms with d. Groups on a side chain read outwards from the residue. *: point of attachment. Undecanoyl(11-OPh(4-COOH)) = O=C(O)c1ccc(OCCCCCCCCCCC(=O)*)cc1; C18 diacid = O=C(O)CCCCCCCCCCCCCCCCC(=O)*; C16 diacid = O=C(O)CCCCCCCCCCCCCCC(=O)*; γGlu = O=C(O)[C@H](CCC(=O)[*:2])N[*:1]; AEEA = NCCOCCOCC(=O)O; Aib = CC(C)(N)C(=O)O
Assay metric: Human AmyR3 potency [EC50 (pM)]

Binder: Compound 0506 (not fully specified (residue 31)) peptide: H[Aib]EGTFTSDVSSYLEEQAAREFIAWLVRGRKGGGGEASELSTAALGRLSAELHELATLPRTETGSGSP-NH2
Assay metric: Human AmyR3 potency [EC50 (pM)]
Measured: 9.8
//
Binder: Compound 0255 (peptide) peptide: HWEGTFTSDVSSYLEEQAARK([AEEA-AEEA-γGlu-Undecanoyl(11-OPh(4-COOH))])FIEWLVRGRGEGGGGGASELSTAALGRLSK([AEEA-AEEA-γGlu-Undecanoyl(11-OPh(4-COOH))])ELHELATLPRTETGSGSP-NH2
Assay metric: Human AmyR3 potency [EC50 (pM)]
Measured: 28.6
//
Binder: Compound 0087 (peptide) peptide: HGEGTFTSDVSSYLEEQAARK([AEEA-AEEA-γGlu-C16 diacid])FIEWLVRGK([AEEA-AEEA-γGlu-C16 diacid])GEGGEASELSTAALGRLSAELHELATLPRTETGSGSP-NH2
Assay metric: Human AmyR3 potency [EC50 (pM)]
Measured: 97.9
//
Binder: Compound 0083 (peptide) peptide: H[Aib]EGTFTSDVSSYLEGQAAREFIAWLVRGRK([AEEA-AEEA-γGlu-C18 diacid])GQEPGQAPEASELSTAALGRLSAELHELATLPRTETGSGSP-NH2
Assay metric: Human AmyR3 potency [EC50 (pM)]
Measured: 46.2
